These data points were gathered from ChEMBL document CHEMBL1154809.

System: DU-145
test name: Anticancer activity against human DU145 cells at 10 uM after 48 hrs by sulforhodamine B assay
Type: functional, cell-based
Calls of active or inactive are those of the source. The calls are words filed in the database; no cut-off is given here.

{"molecular string": "N/C(=N/Cc1ccncc1)c1ccncc1", "target of assay": "DU-145", "Activity": "inactive"}
{"molecular string": "N/C(=N/CCCn1ccnc1)c1cnccn1", "target of assay": "DU-145", "Activity": "inactive"}
{"molecular string": "N/C(=N/CCc1c[nH]cn1)c1ccccn1", "target of assay": "DU-145", "Activity": "inactive"}
{"molecular string": "N/C(=N/CCCn1ccnc1)c1ccccn1", "target of assay": "DU-145", "Activity": "inactive"}
{"molecular string": "N/C(=N/Cc1ccco1)c1ccncc1", "target of assay": "DU-145", "Activity": "inactive"}
{"molecular string": "N/C(=N/Cc1ccccn1)c1cnccn1", "target of assay": "DU-145", "Activity": "inactive"}
{"molecular string": "N/C(=N/CCCn1ccnc1)c1ccncc1", "target of assay": "DU-145", "Activity": "inactive"}
